Consider the following compounds and their measured inhibition at 1 µM readings.
- System under test: GPIIb/IIIa (Homo sapiens, UniProt P05106+P08514)
- Construct: Purification of GPIIb/IIIa from HEL cells; endogenous in cells; host or cells: HEL cells (HEL 92.1.7, ATCC TIB180); endogenous complex solubilized with Triton X-100 and purified in house
- Sequence (P08514 32-887 limits assumed): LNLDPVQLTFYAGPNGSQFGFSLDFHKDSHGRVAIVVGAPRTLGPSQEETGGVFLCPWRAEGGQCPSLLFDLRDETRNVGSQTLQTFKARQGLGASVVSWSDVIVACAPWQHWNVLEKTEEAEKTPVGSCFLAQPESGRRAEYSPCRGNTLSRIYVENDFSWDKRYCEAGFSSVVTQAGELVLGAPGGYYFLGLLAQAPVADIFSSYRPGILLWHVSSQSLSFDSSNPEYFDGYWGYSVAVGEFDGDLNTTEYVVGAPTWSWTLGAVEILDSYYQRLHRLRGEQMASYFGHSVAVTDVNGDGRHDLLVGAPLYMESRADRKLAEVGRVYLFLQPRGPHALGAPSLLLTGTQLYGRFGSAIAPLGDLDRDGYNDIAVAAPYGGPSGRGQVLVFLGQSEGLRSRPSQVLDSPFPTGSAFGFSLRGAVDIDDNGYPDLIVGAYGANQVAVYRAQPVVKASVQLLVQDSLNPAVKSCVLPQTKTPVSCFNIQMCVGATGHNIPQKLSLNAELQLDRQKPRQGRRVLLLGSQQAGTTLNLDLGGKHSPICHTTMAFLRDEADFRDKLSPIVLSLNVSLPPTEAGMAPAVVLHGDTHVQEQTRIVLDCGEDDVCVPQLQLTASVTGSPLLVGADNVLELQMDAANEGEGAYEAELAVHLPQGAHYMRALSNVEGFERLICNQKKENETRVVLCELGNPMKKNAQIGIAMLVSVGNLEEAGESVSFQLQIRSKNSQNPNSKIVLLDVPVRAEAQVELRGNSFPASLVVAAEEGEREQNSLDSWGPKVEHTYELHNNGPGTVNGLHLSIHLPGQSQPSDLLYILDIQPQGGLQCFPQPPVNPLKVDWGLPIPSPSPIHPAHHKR
- Sequence (P08514 891-1039 limits assumed): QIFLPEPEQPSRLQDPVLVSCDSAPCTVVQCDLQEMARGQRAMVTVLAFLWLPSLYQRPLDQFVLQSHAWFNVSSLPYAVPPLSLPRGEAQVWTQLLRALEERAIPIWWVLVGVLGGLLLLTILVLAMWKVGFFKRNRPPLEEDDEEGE
- Sequence (P05106 27-788): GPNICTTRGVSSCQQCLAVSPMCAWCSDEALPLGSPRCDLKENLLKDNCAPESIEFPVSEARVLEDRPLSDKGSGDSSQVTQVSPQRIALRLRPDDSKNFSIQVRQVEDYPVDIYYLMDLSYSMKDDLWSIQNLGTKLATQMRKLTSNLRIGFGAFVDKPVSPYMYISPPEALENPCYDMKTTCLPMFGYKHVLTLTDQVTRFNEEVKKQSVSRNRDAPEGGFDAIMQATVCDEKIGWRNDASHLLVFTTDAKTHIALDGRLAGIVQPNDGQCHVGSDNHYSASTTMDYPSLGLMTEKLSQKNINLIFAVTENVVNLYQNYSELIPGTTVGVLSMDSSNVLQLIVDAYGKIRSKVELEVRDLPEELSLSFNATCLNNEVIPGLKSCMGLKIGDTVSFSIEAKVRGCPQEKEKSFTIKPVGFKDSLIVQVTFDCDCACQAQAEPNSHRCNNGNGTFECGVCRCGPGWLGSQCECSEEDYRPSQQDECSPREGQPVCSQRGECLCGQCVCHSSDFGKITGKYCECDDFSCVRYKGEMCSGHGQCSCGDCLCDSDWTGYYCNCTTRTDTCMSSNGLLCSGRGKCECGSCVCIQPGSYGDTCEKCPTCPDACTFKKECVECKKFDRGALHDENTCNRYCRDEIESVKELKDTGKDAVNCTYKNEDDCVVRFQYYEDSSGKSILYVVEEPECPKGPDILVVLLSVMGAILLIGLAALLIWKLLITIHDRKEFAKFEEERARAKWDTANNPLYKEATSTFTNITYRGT
- Assay comment: Inhibitory activity against binding of GPIIb/IIIa and fibrinogen
- Assay setup: Table 2; 10^-6 M; read-out: GPIIb/IIIa Fibrinogen Binding Inhibitory Activity
The answer should read as a number with its unit following.

Here are 2 compounds together with their reported answers.
# Molecule, System under test, Test result
rows = [
    ("O=C(O)c1cn(Cc2ccc(C(F)(F)F)cc2)c2c(F)c(N3CCC(C4CCNCC4)CC3)c(F)cc2c1=O", "GPIIb/IIIa (Homo sapiens, UniProt P05106+P08514)", "100%"),
    ("O=C(O)CCn1cc(C(=O)O)c(=O)c2cc(F)c(N3CCNCC3)c(F)c21", "GPIIb/IIIa (Homo sapiens, UniProt P05106+P08514)", "56.1%"),
]

Here's the next entry for you.
I would be grateful if you could share the reported inhibition at 1 µM for O=C(O)c1cn(CCc2ccccc2)c2c(F)c(N3CCNCC3)c(F)cc2c1=O .
72.2%

###

- System under test: GPIIb/IIIa (Homo sapiens, UniProt P05106+P08514)
- Construct: Purification of GPIIb/IIIa from HEL cells; endogenous in cells; host or cells: HEL cells (HEL 92.1.7, ATCC TIB180); endogenous complex solubilized with Triton X-100 and purified in house
- Assay comment: Inhibitory activity against binding of GPIIb/IIIa and fibrinogen
- Assay setup: Table 2; 10^-6 M; read-out: GPIIb/IIIa Fibrinogen Binding Inhibitory Activity
Consider the following compounds and their measured inhibition at 1 µM readings.
Give the number; % is assumed, so skip it.

# Compound, Unit of measurement, inhibition at 1 µM
measured = [
    ("CC(=O)N1CC(n2cc(C(=O)O)c(=O)c3cc(F)c(N4CCN(C)CC4)c(F)c32)C1 [Compound 15]", "%", 33.9),
    ("NC1CCCN(c2c(F)cc3c(=O)c(C(=O)O)cn(C4CC4)c3c2F)C1 (stereo not drawn) [Compound 38]", "%", 31.9),
]

I would be grateful if you could share the reported inhibition at 1 µM for O=C(O)c1cn(C2CC2)c2c(F)c(N3CCNCC3)c(F)cc2c1=O [Compound 22] .
39.8
